Test system: Klebsiella oxytoca 1082E
experiment: In Vitro Anti-Bacterial Activity Test (MIC, agar dilution)
Type: cell-based
condition details: Klebsiella oxytoca 1082E; Muller-Hinton agar, 37° C., 18 hours; read-out: MIC
Structures can show the parent of a compound that is named as a salt.
readout type: MIC

compound: CCOC(=O)C(C(=O)OCC)C(=O)c1cn(C2CC2)c2c(Cl)c(N3CC[C@@H](N)C3)c(F)cc2c1=O [Example 23, hydrochloride]
MIC: < 2 ng/mL

compound: O=C(C[N+](=O)[O-])c1cn(C2CC2)c2c(Cl)c(N3CC4=C(CNC4)C3)c(F)cc2c1=O [Example 34, hydrochloride]
MIC: < 2 ng/mL

compound: O=C(C[N+](=O)[O-])c1cn(C2CC2)c2cc(N3CCNCC3)c(F)cc2c1=O [Example 4, hydrochloride]
MIC: < 2 ng/mL

Could you report MIC for every entry in the following list?
1. CC1CN(c2c(F)cc3c(=O)c(C(=O)C[N+](=O)[O-])cn(C4CC4)c3c2F)CCN1 (stereo not shown) [Example 7, hydrochloride]
2. CCOC(=O)C(C(N)=O)C(=O)c1cn(C2CC2)c2c(Cl)c(N3CCC(N)C3)c(F)cc2c1=O (stereo not shown) [Example 52, hydrochloride]
3. CNCC1=CCN(c2c(F)cc3c(=O)c(C(=O)C[N+](=O)[O-])cn(C4CC4)c3c2F)C1 [Example 15, hydrochloride]
4. Cc1c(N2CCC(N)C2)c(F)cc2c(=O)c(C(=O)C[N+](=O)[O-])cn(C3CC3)c12 (stereo not shown) [Example 50, hydrochloride]
5. CCOC(=O)CC(=O)c1cn(C2CC2)c2c(Cl)c(N3CC=C(CNC)C3)c(F)cc2c1=O [Example 29, hydrochloride]

1. < 2 ng/mL
2. < 2 ng/mL
3. < 2 ng/mL
4. 13 ng/mL
5. 49 ng/mL

Could you report MIC for every entry in the following list?
1. CN[C@@H]1CCN(c2c(F)cc3c(=O)c(C(=O)C[N+](=O)[O-])cn(C4CC4)c3c2OC)C1 [Example 64, hydrochloride]
2. C[C@@H]1CN(c2c(F)c(N)c3c(=O)c(C(=O)C[N+](=O)[O-])cn(C4CC4)c3c2F)C[C@H](C)N1 [Example 14, hydrochloride]

7 ng/mL
< 2 ng/mL

---

System: Klebsiella oxytoca 1082E
experiment: In Vitro Anti-Bacterial Activity Test (MIC, agar dilution)
Type: cell-based
condition details: Klebsiella oxytoca 1082E; Muller-Hinton agar, 37° C., 18 hours; read-out: MIC
Where a name gives a salt, the structure may show the parent alone.
readout type: MIC

Some solved cases for reference:
molecule: NCC1CCN(c2c(F)cc3c(=O)c(C(=O)C[N+](=O)[O-])cn(C4CC4)c3c2Cl)C1 (stereo not drawn) [Example 53, hydrochloride]
MIC: < 2 ng/mL

molecule: NC1CCN(c2c(F)cc3c(=O)c(C(=O)C[N+](=O)[O-])cn(C4CC4)c3c2Cl)C1 (stereo not drawn) [Example 11, hydrochloride]
MIC: < 2 ng/mL

Quick check: MIC of N[C@@H]1CCN(c2c(F)cc3c(=O)c(C(=O)C[N+](=O)[O-])cn(C4CC4)c3c2Cl)C1 [Example 12, hydrochloride] ?
< 2 ng/mL

---

I'd appreciate it if you could supply MIC values for the items below.
System: Escherichia coli 1507E
experiment: In Vitro Anti-Bacterial Activity Test (MIC, agar dilution)
Type: cell-based
condition details: Muller-Hinton agar, 37° C., 18 hours, read-out: MIC
Counter-ions that a name gives are not always drawn.

Some solved cases for reference:
molecule: O=C(C[N+](=O)[O-])c1cn(C2CC2)c2c(F)c(N3CCNCC3)c(F)cc2c1=O [Example 6, hydrochloride]
MIC: < 2 ng/mL
--
molecule: CCOC(=O)C(C(=O)OCC)C(=O)c1cn(C2CC2)c2c(Cl)c(N3CC[C@H](N)C3)c(F)cc2c1=O [Example 24, hydrochloride]
MIC: < 2 ng/mL
--
molecule: NC1CCN(c2c(F)cc3c(=O)c(C(=O)C[N+](=O)[O-])cn(C4CC4)c3c2Cl)C1 (stereo not shown) [Example 11, hydrochloride]
MIC: < 2 ng/mL

Quick check: MIC of CCOC(=O)C(C(=O)OCC)C(=O)c1cn(C2CC2)c2c(Cl)c(N3CCC(N)C3)c(F)cc2c1=O (stereo not shown) [Example 22, hydrochloride] ?
< 2 ng/mL

---

I'd appreciate it if you could supply MIC values for the items below.
System: Salmonella typhimurium
experiment: In Vitro Anti-Bacterial Activity Test (MIC, agar dilution)
Type: cell-based
condition details: Salmonella enterica; Salmonella typhimurium; Muller-Hinton agar, 37° C., 18 hours; read-out: MIC
Where a name gives a salt, the structure may show the parent alone.

molecule: CNCC1=CCN(c2c(F)cc3c(=O)c(C(=O)C[N+](=O)[O-])cn(C4CC4)c3c2Cl)C1 [Example 16, hydrochloride]
MIC: < 20 ng/mL
//
molecule: CCOC(=O)C(C(=O)OCC)C(=O)c1cn(C2CC2)c2c(Cl)c(N3CC[C@H](N)C3)c(F)cc2c1=O [Example 24, hydrochloride]
MIC: < 2 ng/mL
//
molecule: CCOC(=O)C(C(=O)OCC)C(=O)c1cn(C2CC2)c2c(F)c(N3CCC(N)C3)c(F)cc2c1=O (centres unmarked) [Example 20, hydrochloride]
MIC: < 2 ng/mL
//
molecule: C[C@@H]1CN(c2c(F)c(N)c3c(=O)c(C(=O)C[N+](=O)[O-])cn(C4CC4)c3c2F)C[C@H](C)N1 [Example 14, hydrochloride]
MIC: < 2 ng/mL

Next, consider the following molecule.
Quick check: MIC of NC1CCN(c2c(F)cc3c(=O)c(C(=O)C[N+](=O)[O-])cn(C4CC4)c3c2Cl)C1 (centres unmarked) [Example 11, hydrochloride] ?
< 2 ng/mL

---

System: Staphylococcus aureus 285
experiment: In Vitro Anti-Bacterial Activity Test (MIC, agar dilution)
Assay type: cell-based
condition details: Staphylococcus aureus, 285, 18 h, Staphylococcus aureus 285; Muller-Hinton agar, 37° C., 18 hours; read-out: MIC
Structures can show the parent of a compound that is named as a salt.
I'd appreciate it if you could supply MIC values for the items below.

Some solved cases for reference:
molecule: N#CC(C#N)C(=O)c1cn(C2CC2)c2c(Cl)c(N3CCC(N)C3)c(F)cc2c1=O (stereo not shown) [Example 45, hydrochloride]
readout type: MIC
result: 1.56 µg/mL
//
molecule: NC1CCN(c2nc3c(cc2F)c(=O)c(C(=O)C[N+](=O)[O-])cn3-c2ccc(F)cc2F)C1 (stereo not shown) [Example 8]
readout type: MIC
result: 0.025 µg/mL
//
molecule: CCn1cc(C(=O)C[N+](=O)[O-])c(=O)c2cc(F)c(N3CCC(N)C3)c(F)c21 (stereo not shown) [Example 30, hydrochloride]
readout type: MIC
result: 0.195 µg/mL

Next, consider the following molecule.
Notebook: pull reported MIC for Staphylococcus aureus 285, entry CNC1CCN(c2c(F)cc3c(=O)c(C(=O)C[N+](=O)[O-])cn(C4CC4)c3c2OC)C1 (stereo not shown) [Example 66, hydrochloride]
0.391 µg/mL

---

I'd appreciate it if you could supply MIC values for the items below.
Test system: Klebsiella oxytoca 1082E
experiment: In Vitro Anti-Bacterial Activity Test (MIC, agar dilution)
Format: cell-based
condition details: Klebsiella oxytoca 1082E; Muller-Hinton agar, 37° C., 18 hours; read-out: MIC
Where a name gives a salt, the structure may show the parent alone.

Some solved cases for reference:
compound: NC1CCN(c2cc3c(cc2F)c(=O)c(C(=O)C[N+](=O)[O-])cn3-c2ccc(F)cc2F)C1 (stereo not drawn) [Example 9, hydrochloride]
MIC: < 2 ng/mL

compound: CCOC(=O)CC(=O)c1cn(C2CC2)c2c(Cl)c(N3CC[C@H](N)C3)c(F)cc2c1=O [Example 27, hydrochloride]
MIC: < 2 ng/mL

Notebook: pull reported MIC for Klebsiella oxytoca 1082E, entry CCOC(=O)CC(=O)c1cn(C2CC2)c2c(Cl)c(N3CCC(N)C3)c(F)cc2c1=O (stereo not drawn) [Example 25, hydrochloride]
< 2 ng/mL

---

System: Escherichia coli 1507E
experiment: In Vitro Anti-Bacterial Activity Test (MIC, agar dilution)
Assay type: cell-based
condition details: Escherichia coli, 1507E, 18 h, Muller-Hinton agar, 37° C.
Counter-ions that a name gives are not always drawn.
I'd appreciate it if you could supply MIC values for the items below.
One number for each entry, in µg/mL.

compound: CCOC(=O)CC(=O)c1cn(C2CC2)c2c(Cl)c(N3CCC(N)C3)c(F)cc2c1=O (stereo not drawn) [Example 25, hydrochloride]
readout type: MIC
number: 0.025

Could you report MIC for every entry in the following list?
1. N#CCC(=O)c1cn(C2CC2)c2c(Cl)c(N3CCC(N)C3)c(F)cc2c1=O (stereo not drawn) [Example 42, hydrochloride]
2. Cc1c(F)c(N2CCNC(C)C2)cc2c1c(=O)c(C(=O)C[N+](=O)[O-])cn2C1CC1 (stereo not drawn) [Example 51, hydrochloride]

[0.195, 0.049]
